# kon annotations
biological target: T1, Human VEGF-A 165 (human, UniProt P15692 207-395); experiment: SPR (Biacore), antibody captured by anti-human Fc, hVEGF165 as analyte
T1 construct: Recombinant human VEGF165; also called huVEGF-A165; hVEGF165
T1 sequence (P15692 other isoform, or with tags, fused parts or gaps): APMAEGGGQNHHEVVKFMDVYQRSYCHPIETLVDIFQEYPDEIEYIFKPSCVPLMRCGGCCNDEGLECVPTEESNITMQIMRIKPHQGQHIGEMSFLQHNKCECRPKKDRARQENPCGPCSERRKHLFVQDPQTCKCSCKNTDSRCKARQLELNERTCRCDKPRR
Provide only the numeric value, understood in M⁻¹ s⁻¹.

binder: chBEW-3A1 (antibody, human IgG1, kappa, L234A L235A, V domains shown, also called chBEW-3A1-D10-G9) VH: QVQLEQSGAELVKPGTSVKLSCMASGYTSSSNHMNWMKQTTGQGLEWIGIINPGSGGTRYNVKFEGKATLTVDKSSSTAFMQLNSLTPEDSAVYYCARAGFPGPFSYYAMGAWGQGTSVTVSS VL: DIQMTQSPPVLSASVGDRVTLSCKASQNIHNNLDWYQQKHGEAPKLLIFYTNNLQTGIPSRFSGSGSGTDYTLTISSLQPEDVATYYCYQYNSGYTFGAGTKLELKR
kon / M⁻¹ s⁻¹: 3.5e+07

Param item = chBEW-1B4 (antibody, human IgG1, kappa, L234A L235A, V domains shown, also called chBEW-1B4-C4) VH: QIQLVQSGPELKKPGESVKISCKASGYSFTNYGMYWVKQAPGQGLQYMGWIDTETGKPTYTDDFKGRFVFFLETSASTAYLQINNLKNEDMATYFCARWSGDTAGIRGPWFAYWGQGTLVTVSS VL: DIRMTQSPASLSASLGETVNIECLASEDIYSDLAWYQQKPGKSPQLLIYNANDLQKGVPSRFSGSGSGTQYSLKINSLQSEDVATYFCQQYNYYPGTFGAGTKLELKR ; retrieve measured kon.
1.1e+07

I am curious: what kon value has been reported for chBEW-5C3 (antibody, human IgG1, kappa, L234A L235A, V domains shown, also called chBEW-5C3-E7) VH: QIQLVQSGPELKKPGESVKISCKASGYTFTNYGVYWVKQAPGQGLQYMGWINTETGKPTYADDFKGRFVFFLETSTNTAYLQINNLKNEDMATFFCARARQLDWFVYWGQGTLVTVSS VL: DTVLTQSPALTVSPGERVSISCRARESLTTSLCWFQQKPGQQPKLLIYGASKLESGVPARFSGSGSGTDFTLTIDPVEADDTATYFCQQSWYDPPTFGGGTKLELKR ?
6.8e+06
